All values here come from ChEMBL document CHEMBL5143532.

- Assay Details: Cmax in Sprague-Dawley rat at 5 mg/kg, po
- Assay type: ADME, organism-based
- Set-up: dose 5 mg/kg, route po
- Settings: in vivo
Parameter Measured: Cmax
The answer consists of two parts: a number and, after it, its unit.

Summary for this molecule, OC[C@H]1O[C@@H](c2cc(Cc3ccc(C4CC4)cc3)c(Cl)c3c2CCO3)[C@H](O)[C@@H](O)[C@@H]1O [ENAVOGLIFLOZIN] : Cmax is 2340 ng/mL

###

- Assay Details: Selectivity index, ratio of IC50 for human SGLT1 expressed in CHO cells to IC50 for human SGLT2 expressed in CHO cells
- Assay type: cell-based
Parameter Measured: Ratio IC50

Ratio IC50 in this record for CCc1ccc(Cc2cc([C@@H]3O[C@H](CO)[C@@H](O)[C@H](O)[C@H]3O)c3c(c2Cl)OCC3)cc1 : 772

# ---- query compound ----
Lookup result for OC[C@H]1O[C@@H](c2cc(Cc3ccc(C4CC4)cc3)c(Cl)c3c2CCO3)[C@H](O)[C@@H](O)[C@@H]1O [ENAVOGLIFLOZIN] ; measured Ratio IC50: 780

###

- Measured Target: Sodium/glucose cotransporter 1 (Homo sapiens, UniProt P13866)
- Sequence (P13866 whole entry): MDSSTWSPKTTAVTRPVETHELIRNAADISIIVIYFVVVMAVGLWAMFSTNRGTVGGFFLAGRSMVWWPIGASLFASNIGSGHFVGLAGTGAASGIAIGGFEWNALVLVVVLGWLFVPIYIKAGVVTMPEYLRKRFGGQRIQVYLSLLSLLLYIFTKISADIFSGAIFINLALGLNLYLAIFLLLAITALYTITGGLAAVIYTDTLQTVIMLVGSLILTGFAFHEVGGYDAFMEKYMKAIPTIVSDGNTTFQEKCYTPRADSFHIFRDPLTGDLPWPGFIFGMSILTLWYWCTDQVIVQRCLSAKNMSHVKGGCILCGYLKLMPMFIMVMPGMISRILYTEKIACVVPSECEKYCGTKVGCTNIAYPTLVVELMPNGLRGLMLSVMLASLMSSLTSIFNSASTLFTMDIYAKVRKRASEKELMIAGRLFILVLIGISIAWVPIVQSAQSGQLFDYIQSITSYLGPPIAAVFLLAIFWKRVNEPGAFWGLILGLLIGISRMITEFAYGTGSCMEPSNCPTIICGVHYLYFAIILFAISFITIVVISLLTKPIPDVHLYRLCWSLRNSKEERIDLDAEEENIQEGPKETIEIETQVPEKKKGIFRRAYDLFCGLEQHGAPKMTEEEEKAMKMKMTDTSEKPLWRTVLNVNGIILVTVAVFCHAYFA
- Assay Details: Inhibition of human SGLT1 expressed in CHO cells by methyl-alpha-D-glucopyranoside assay
Parameter Measured: pIC50
Formally, pIC50 is defined as -log10 of the concentration c, with c in mol/L.

Example results:
The value of pIC50 recorded for OC[C@H]1O[C@@H](c2cc(Cc3ccc(C4CCCC4)cc3)c(Cl)c3c2CCO3)[C@H](O)[C@@H](O)[C@@H]1O when tested on Sodium/glucose cotransporter 1 (Homo sapiens, UniProt P13866) reads 5.00

Entry CCOc1ccc(Cc2cc([C@@H]3O[C@H](CO)[C@@H](O)[C@H](O)[C@H]3O)c3c(c2Cl)OCC3)cc1 under Sodium/glucose cotransporter 1 (Homo sapiens, UniProt P13866) had pIC50 of 5.67

The value of pIC50 recorded for CC(C)c1ccc(Cc2cc([C@@H]3O[C@H](CO)[C@@H](O)[C@H](O)[C@H]3O)c3c(c2Cl)OCC3)cc1 when tested on Sodium/glucose cotransporter 1 (Homo sapiens, UniProt P13866) reads 5.31

Further cases:
Entry CCCOc1ccc(Cc2cc([C@@H]3O[C@H](CO)[C@@H](O)[C@H](O)[C@H]3O)c3c(c2Cl)OCC3)cc1 , Sodium/glucose cotransporter 1 (Homo sapiens, UniProt P13866) data, pIC50 value: 5.20

Value sought: pIC50, system Sodium/glucose cotransporter 1 (Homo sapiens, UniProt P13866), item COc1ccc(Cc2cc([C@@H]3O[C@H](CO)[C@@H](O)[C@H](O)[C@H]3O)c3c(c2Cl)OCC3)cc1 . Result: 6.40

The value of pIC50 recorded for CCc1ccc(Cc2cc([C@@H]3O[C@H](CO)[C@@H](O)[C@H](O)[C@H]3O)c3c(c2Cl)OCC3)cc1 when tested on Sodium/glucose cotransporter 1 (Homo sapiens, UniProt P13866) reads 6.25

Per the reported Sodium/glucose cotransporter 1 (Homo sapiens, UniProt P13866) data, OC[C@H]1O[C@@H](c2cc(Cc3ccc(C4CC4)cc3)c(Cl)c3c2CCO3)[C@H](O)[C@@H](O)[C@@H]1O has pIC50 of 6.44

Here CCCc1ccc(Cc2cc([C@@H]3O[C@H](CO)[C@@H](O)[C@H](O)[C@H]3O)c3c(c2Cl)OCC3)cc1 was tested on Sodium/glucose cotransporter 1 (Homo sapiens, UniProt P13866), and its pIC50 came to 5.86

###

Each entry below carries its recorded half-life.
- Assay Details: Metabolic stability in mouse by LC-MS/MS analysis
- Type: ADME
- Settings: read-out: Stability
Respond with the bare value in min.

Note to self: half-life recorded for COc1ccc(Cc2cc([C@@H]3O[C@H](CO)[C@@H](O)[C@H](O)[C@H]3O)c3c(c2Cl)CCCO3)cc1 was 37.6

New cases:
// recorded half-life for COc1ccc(Cc2cc([C@@H]3O[C@H](CO)[C@@H](O)[C@H](O)[C@H]3O)c3c(c2Cl)CCO3)cc1 : 42.5

###

Listing of recorded Ratio IC50 by entry.
- Assay Details: Selectivity index, ratio of IC50 for human SGLT1 expressed in CHO cells to IC50 for human SGLT2 expressed in CHO cells
- Format: cell-based
Lab note: jot the number down without any unit.

Ratio IC50 recorded for this molecule, COc1ccc(Cc2cc([C@@H]3O[C@H](CO)[C@@H](O)[C@H](O)[C@H]3O)c3c(c2Cl)CCO3)cc1 , is 20

---
For reference, reported Ratio IC50 for CCOc1ccc(Cc2cc([C@@H]3O[C@H](CO)[C@@H](O)[C@H](O)[C@H]3O)c3c(c2Cl)OCC3)cc1 stands at 1410

Entry under test: C=Cc1ccc(Cc2cc([C@@H]3O[C@H](CO)[C@@H](O)[C@H](O)[C@H]3O)c3c(c2Cl)OCC3)cc1 . Its Ratio IC50 was 441

###

- Assay Details: Selectivity index, ratio of IC50 for human SGLT1 expressed in CHO cells to IC50 for human SGLT2 expressed in CHO cells
- Format: cell-based
// values below are reported Ratio IC50
// no unit string in output, number only

get_value(item= CCCOc1ccc(Cc2cc([C@@H]3O[C@H](CO)[C@@H](O)[C@H](O)[C@H]3O)c3c(c2Cl)OCC3)cc1 , readout=Ratio IC50) returns 5150

// sample COc1ccc(Cc2cc([C@@H]3O[C@H](CO)[C@@H](O)[C@H](O)[C@H]3O)c3c(c2Br)CCC3)cc1 , its Ratio IC50 was 35

// next entry
According to the records, this molecule OC[C@H]1O[C@@H](c2cc(Cc3ccc(C4CCCC4)cc3)c(Cl)c3c2CCO3)[C@H](O)[C@@H](O)[C@@H]1O displays Ratio IC50 of 8560
